Where do these numbers come from? They come from ChEMBL document CHEMBL1143149.

In this section we review reported pIC50 values for a set of molecules.
Test system: A549
Method: Cytotoxicity against human A549 cells after 24 hrs
Type: functional, cell-based
Experimental Parameters: A549, 24 h
Field pIC50 (float): negative decimal logarithm of the concentration in molar.

COC(=O)c1cccc2oc(-c3cccc4oc(-c5ccccc5O)nc34)nc12 ... 4.77

API: the following record is the query input.
Input line: Using the record for CO[C@@]12[C@H](COC(N)=O)C3=C(C(=O)C(C)=C(N)C3=O)N1C[C@@H]1N[C@@H]12 [MITOMYCIN] , report its pIC50.
Output line: 5.35

----------
Tested on: MCF7
Method: Cytotoxicity against human MCF7 cells by Alamar blue assay
Format: functional, cell-based
We label by threshold. Values of IC50 strictly beneath 10 µM are label 1. Values of 10 µM and up are label 0.

Answered examples (6):
COC(=O)c1cccc2nc(-c3ccccc3O)oc12 ... label 1
O=C(NCCOCCO)c1cccc2oc(-c3ccccc3O)nc12 ... label 0
O=C(OCCOCCOCCOCCO)c1cccc2oc(-c3ccccc3O)nc12 ... label 0
CCOC(=O)c1cccc2oc(-c3ccccc3O)nc12 ... label 0
COC(=O)c1cccc2oc(-c3ccccc3O)nc12 ... label 1
O=C(NCCCCCCO)c1cccc2oc(-c3ccccc3O)nc12 ... label 0

Input line: A record lists CCCCNC(=O)c1cccc2oc(-c3ccccc3O)nc12 . Is its IC50 below 10 µM?
Output line: label 0

Input line: A record lists COc1ccccc1-c1nc2c(C(=O)O)cccc2o1 . Is its IC50 below 10 µM?
Output line: label 0
